Every entry's value here was drawn from the DeepSol protein solubility set.

- assay.method.text: soluble on expression in E. coli; label from the status in PepcDB or PDB records
value.kind: soluble on expression in E. coli

INSERT INTO assay_data (primary_sequence, result) VALUES
  ('MAHHHHHHMATAKELGPGGLREDGRPIFIATDHTKFTPSTKQELTDQQKLAWKSFQLWRTTLGIERRDNVYKTLTNSDYTNFRLGTHILGTPYPVIETVPGFFDVFKAVRWYEHAISLAVALGYGYWIRSKASTRYSRMMPMSRTSITMLTFISTDLCFCYRSMYRLTGYLPNEYECFKYGVLEDKDKLQRKKELWEKYANHKREWCRRYDYHVYGIRPGETFSFFSACMIPSWEPRYNTRTDYPPRKNPYFLTSTPLRDTFLESPFTYEIPKDETVPLVRERPELKYLYRGPGRTTPPSDEK', 'not soluble'),
  ('MPNIDNVFSIYAGQLELLRQNGLIERTGEYICPICLNSFNKEQLNKLSMEDAPQASLGGKKIAITCKKCNNTCGHETDIHLVNFITYLEEQEFLPGSNRRVKIFDDETTINANLEVGNTKELKMIIPNKINNPKALTNHLSKLTVGGIIDIQNHPLKIDMKKVSTAILKNAYIILFARFGYSFLLNSFYDRIREQILNPAKHIIPESLWTKQTSISVKDGIYFSNSNVYRGFFIIYSLTKLRTHHFCICIPTPQVYFEAIAYYFREYKAGIPIYMMGSDGIDYFQNIDNIKALNKWLVNWSLGSPV', 'not soluble');

====

- assay.method.text: soluble on expression in E. coli; label from the status in PepcDB or PDB records
value.kind: soluble on expression in E. coli

INSERT INTO measurements (primary_sequence, value_kind, result) VALUES
  ('SIRTSFIKLPGSDGSRYCDSWRLAAETNNVGTWDLIPSICVDSVAEYLNGDQFLSDYSVIVDYALAFAKSVEISGDGKDVWIFDIDETLLTNIDYYKAHGYGSEPYDDNKFSEWVEQGTAPAFDASLRLYNALKKLGFTIILLTGRDEHQRTSTETNLRDAGYSGWERLLLRGPNDQGKSATNYKSEQRSKLIEEGFKIRGNSGDQWSDLQGFAVADRSFKVPNPMYYIP', 'soluble on expression in E. coli', 'soluble'),
  ('MAVKINDLTLPKEKLENEYQVVQVSLWQKDGEALGWTYECVLPKLRFEKISVKVKSEAPVITKETLDEKGMAIVRFDNLMITPWGRVNGQFVSYGLTATAYKATLVPNK', 'soluble on expression in E. coli', 'not soluble'),
  ('SNALSASEERFQLAVSGASAGLWDWNPKTGAMYLSPHFKKIMGYEDHELPDEITGHRESIHPDDRARVLAALKAHLEHRDTYDVEYRVRTRSGDFRWIQSRGQALWNSAGEPYRMVGWIMDVTDRKRDEDALRVSREELRRL', 'soluble on expression in E. coli', 'soluble'),
  ('MQRVDLNSDLGESFGAYTIGQDDRVLEHVTSANIACGYHAGDHNVMARTVKLAADKGMGIGAHPGFPDLLGFGRRNIQTDHKDIYNFIVYQVAALNGFCQLHRVRMQHVKPHGALYNMAAKDRVIAEAIAEAIYDIDPSLILFGLSGSELIKAGKKLGLTVANEVFADRTYQPDGTLTPRSEANALIKESERATEQVIQMVKESKVIAVDGSHIPIEADTICVHGDSPTALSFIERLHAQLQVEGVTVTKVSDFLFKLEHHHHHH', 'soluble on expression in E. coli', 'not soluble');

====

- assay.method.text: soluble on expression in E. coli; label from the status in PepcDB or PDB records
value.kind: soluble on expression in E. coli

INSERT INTO results (primary_sequence, result) VALUES
  ('MGSDKIHHHHHHMLAALKKYLLVPKLMRLSAGAPRDHHIAWDRFWSNVKTTGASGDVLWDSGSDHEMQGYVDRLRLHLDPGLPIVDIGCGNGSFTRQLAGHFPHAVGVDVSAHAVRRARAETAGLANISYAVADMTASGAGSGLLEELAVLDTGGQAGGGANVFIRGVLHVLGERDQHALAENARAITRANGRVFLAETNFRGNAVDYVTHLGATLRSIPAPLEGAIRGLPMPGRFGPKERSLAFPASRWELIEEGPTTIETMPLSNPARSDLIPGYFAVLEGRN', 'not soluble'),
  ('MLKVEMLSTGDEVLHGQIVDTNAAWLADFFFHQGLPLSRRNTVGDNLDDLVTILRERSQHADVLIVNGGLGPTSDDLSALAAATAKGEGLVLHEAWLKEMERYFHERGRVMAPSNRKQAELPASAEFINNPVGTACGFAVQLNRCLMFFTPGVPSEFKVMVEHEILPRLRERFSLPQPPVCLRLTTFGRSESDLAQSLDTLQLPPGVTMGYRSSMPIIELKLTGPASEQQAMEKLWLDVKRVAGQSVIFEGTEGLPAQISRELQNRQFSLTLSEQFTGGLLALQLSRAGAPLLACEVVPSQEETLAQTAHWITERRANHFAGLALAVSGFENEHLNFALATPDGTLALRVRFSTTRYSLAIRQEVCAMMALNMLRRWLNGQDIASEHGWIEVVESMTLSV', 'soluble'),
  ('MGLCVSKGSTASSPQHYAVRYTEQVTPSPSPSVASTSPSLHDSTAIGSPLARRSVLLPHEVQQAAYQLAMRLNGRAIEDASDRKRLVDATATVHETRLALHRGRGKVDSDLRLSNGRSATYSSLSYCLGEDDENLLAGSALAAGAGNCDHNAAINTRRHAVRMEDGGQMMTVRDYEQTHLYALYQPPNSAEADESTVVLDSWGDGPAVLLRDSHWAESYGTSTHVIERFDKPDATDALARTNAFRAEIENPQTALHANARELETAFLANPAPGDIFSAMPVIAPHLAESTRRRLQECSPRTRNVLAADAARDAYGLDDAQANSPRTTKAILKEAKRLDALGRPPLSW', 'not soluble'),
  ('TDTDEVINLRVVETTDIHTNLMDYDYYKDKPTQKIGLARTATLVKEARAEVTNSVLVDNGDLLQGSPMGDYMADKGIEAGEVHPAYKAMNQLDYDAGNIGNHEFNYGLEFLAESINDADFPYISANVYDAKTKEHYFKPYIIKTHKLKDTAGVEHEIKVGYIGFVPPQIMVWDKKNLEGKVFARDIKETAEELVPQMKAEGADVIVAIPHSGVSTNPYKQGEENSTYYLSEVDGIDAIAFGHSHAVFPGKGFDNLQGIDNENGTINGVAAVMPGRWGSHVGVMDLTLEQKDGKWSVVKGQSEARPIFDKTNQKSLADADKGIVQALEADHKGTRDFVNQ', 'not soluble'),
  ('MEYELLIREAEPKDAAELVAFLNRVSLETDFTSLDGDGILLTSEEMEIFLNKQASSDNQITLLAFLNGKIAGIVNITADQRKRVRHIGDLFIVIGKRYWNNGLGSLLLEEAIEWAQASGILRRLQLTVQTRNQAAVHLYQKHGFVIEGSQERGAYIEEGKFIDVYLMGKLIG', 'soluble');

====

- assay.method.text: soluble on expression in E. coli; label from the status in PepcDB or PDB records
value.kind: soluble on expression in E. coli

INSERT INTO results (primary_sequence, value_kind, result) VALUES
  ('GSSGSSGMGNSKSGALSKEILEELQLNTKFSEEELCSWYQSFLKDCPTGRITQQQFQSIYAKFFPDTDPKAYAQHVFRSFDSNLDGTLDFKEYVIALHMTTAGKTNQKLEWAFSLYDVDGNGTISKNEVLEIVMAIFKMITPEDVKLLPDDENTPEKRAEKIWKYFGKNDDDKLTEKEFIEGTLANKEILRLIQFEPQKVKEKMKNA', 'soluble on expression in E. coli', 'soluble'),
  ('SQLVECVPNFSEGKNQEVIDAISRAVAQTPGCVLLDVDSGPSTNRTVYTFVGRPEDVVEGALNAARAAYQLIDMSRHHGEHPRMGALDVCPFIPVRGVTMDECVRCAQAFGQRLAEELGVPVYLYGEAARTAGRQSLPALRAGEYEALPEKLKQAEWAPDFGPSAFVPSWGATVAGARKFLLAFNINLLSTREQAHRIALDLREQGRGKDQPGRLKKVQAIGWYLDEKNLAQVSTNLLDFEVTGLHTVFEETCREAQELSLPVVGSQLVGLVPLKALLDAAAFYCEKENLFLLQDEHRIRLVVNRLGLDSLAPFKPKERIIEYLV', 'soluble on expression in E. coli', 'soluble'),
  ('GMPIDTPTDASPADGSASDTVFFGIMSGLELGTFVPGQRLVETDLVAHFGVGRNSVREALQRLAAEGIVDLQRHRGAVIRRLSLQETLDVLDVAERMTGLLARAATRGSGNQPQVQALRASVQALVAAEKAQDGETFSNARRHFYRTLLEMGDNRELRRLFPTIHMPIVHAQHRLASLRQMRLDDYRRIATAVLAGEPDAAEAAGAAHVKNVRGAILDRQPA', 'soluble on expression in E. coli', 'soluble');
